Reported values of inhibition at 1 µM for individual entries
# test.summary: Anti-osteoclastogensis activity in C57BL/6 mouse BMMC cells assessed as inhibition of RANKL/M-CSF-induced TRAP activity at 1 uM measured after 3 days by colorimetric assay (reference value: 0%)
# Format: functional
# run.conditions: C57BL/6, BMMC, 72 h, time 3 day

{"chemical.structure": "CCOC(=O)Nc1cc(-c2cccnc2)cc2c(C(C)=O)c(C)[nH]c12", "unit.of.measure": "%", "inhibition at 1 µM": 73.8}
{"chemical.structure": "CC(=O)c1c(C)[nH]c2c(N(C)C)cc(-c3nccs3)cc12", "unit.of.measure": "%", "inhibition at 1 µM": 44.1}
{"chemical.structure": "CCOC(=O)Nc1cc(C(=O)c2ccccc2)cc2c(C(C)=O)c(C)[nH]c12", "unit.of.measure": "%", "inhibition at 1 µM": 66.8}
{"chemical.structure": "CC(=O)c1c(C)[nH]c2c(N(C)C)cc(-c3ccccn3)cc12", "unit.of.measure": "%", "inhibition at 1 µM": 100}
{"chemical.structure": "CCOC(=O)Nc1cc(-c2ccccn2)cc2c(C(C)=O)c(C)[nH]c12", "unit.of.measure": "%", "inhibition at 1 µM": 38.8}
{"chemical.structure": "CCOC(=O)Nc1cc(C(=O)Nc2nccs2)cc2c(C(C)=O)c(C)[nH]c12", "unit.of.measure": "%", "inhibition at 1 µM": 0}
{"chemical.structure": "CCOC(=O)Nc1cc(-c2nccs2)cc2c(C(C)=O)c(C)[nH]c12", "unit.of.measure": "%", "inhibition at 1 µM": 41.3}
{"chemical.structure": "CC(=O)c1c(C)[nH]c2c(N(C)C)cc(-c3ccncc3)cc12", "unit.of.measure": "%", "inhibition at 1 µM": 67.1}
{"chemical.structure": "CCOC(=O)Nc1cc(C(=O)NC)cc2c(C(C)=O)c(C)[nH]c12", "unit.of.measure": "%", "inhibition at 1 µM": 36.8}
{"chemical.structure": "CC(=O)c1c(C)[nH]c2c(N)cc(-c3cccnc3)cc12", "unit.of.measure": "%", "inhibition at 1 µM": 0}
